Data provenance is patent US10023519B2.

tested.system: human GPR120 (Homo sapiens (Human))
Sequence (Q5NUL3 whole entry): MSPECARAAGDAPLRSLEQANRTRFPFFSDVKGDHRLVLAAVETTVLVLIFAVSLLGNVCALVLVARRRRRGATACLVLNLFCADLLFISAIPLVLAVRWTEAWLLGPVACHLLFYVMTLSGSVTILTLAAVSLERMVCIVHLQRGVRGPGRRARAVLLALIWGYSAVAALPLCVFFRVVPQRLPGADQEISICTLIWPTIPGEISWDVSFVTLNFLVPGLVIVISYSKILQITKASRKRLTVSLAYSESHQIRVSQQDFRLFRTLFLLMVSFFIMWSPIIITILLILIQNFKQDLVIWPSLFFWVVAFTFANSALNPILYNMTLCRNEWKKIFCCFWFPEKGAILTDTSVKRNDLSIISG
assay.protocol: GPR120 pERK AlphaScreen SureFire Assay (human)
condition.set: CHO cells stably transfected with short form of human GPR120
Protocol: GPR120 activity was monitored by measuring phosphorylation of ERK (pERK), since G protein receptors are known to activate the ERK signaling cascade either directly and/or through recruitment of arrestin that serves as a scaffold for downstream signaling events. […] The lysis buffer was diluted 5-fold with water before use. […] The plates were read on the Alpha-technology compatible Envision multilabel plate reader using AlphaScreen protocol according to manufacturer's specifications. […]
pEC50: −log10 of the molar value.
result.type: pEC50

INSERT INTO results (molecule, recorded_result) VALUES
  ('CC(C)Oc1ccc(F)c(-c2ccc([C@H]3C[C@@H](CCC(=O)O)C3)cc2)c1 [Example 46]', 6.19),
  ('Cc1ncc(Oc2ccc(F)c(-c3ccc([C@H]4C[C@@H](OCC(=O)O)C4)cc3)c2)s1 [Example 27]', 6.38),
  ('O=C(O)COCCC[C@H]1C[C@H](c2cccc(Oc3ccccc3)c2)C1 [Example 56]', 6.77),
  ('O=C(O)COCCC1CC(OCc2cccc(Oc3ccccc3)c2)C1 (stereo not shown) [Example 57]', 6.15);
